assay: in vivo; details: Balb nu/nu, mouse, iv, 10 mg/kg
measured.attribute: Vd (L/kg)
Provide the reading as a plain figure in L/kg.

Below, each entry is followed by its recorded Vd result.
structure.smiles: CN1CCC(NC(=O)c2cc(-c3c(O)cc(O)cc3Oc3ccc(N(C)C)cc3)on2)CC1
Vd, L/kg: 19.7
--
structure.smiles: CC(C)Nc1ccc(Oc2cc(O)cc(O)c2-c2cc(C(=O)NC3CCN(C)CC3)no2)cc1
Vd, L/kg: 18.4

As a next step, examine the compound that follows.
**Q:** # Vd lookup, item "CN(C)c1ccc(Oc2cc(O)cc(O)c2-c2cc(C(=O)NC3CCN(C4CCC5(CC4)OCCO5)CC3)no2)cc1"
**A:** 4.94

---

experiment: in vivo; settings: Balb nu/nu, mouse, plasma, iv, 10 mg/kg
AUC(0-inf): recorded values
Provide the reading as a plain figure in µM·h.

Below, each entry is followed by its recorded AUC(0-inf) result.
structure.smiles: CN(C)c1ccc(Oc2cc(O)cc(O)c2-c2cc(C(=O)NC3CCN(C4CCC5(CC4)OCCO5)CC3)no2)cc1
units.symbol: µM·h
value.observed: 7.6

structure.smiles: CN1CCC(NC(=O)c2cc(-c3c(O)cc(O)cc3Oc3ccc(N(C)C)cc3)on2)CC1
units.symbol: µM·h
value.observed: 5.92

As a next step, examine the compound that follows.
**Q:** # AUC(0-inf) lookup, item "CC(C)Nc1ccc(Oc2cc(O)cc(O)c2-c2cc(C(=O)NC3CCN(C)CC3)no2)cc1"
**A:** 4.8

---

experiment: in vivo; conditions: Balb nu/nu, mouse, iv, 10 mg/kg
clearance: recorded values
Provide the reading as a plain figure in mL/min/kg.

Below, each entry is followed by its recorded clearance result.
structure.smiles: CC(C)Nc1ccc(Oc2cc(O)cc(O)c2-c2cc(C(=O)NC3CCN(C)CC3)no2)cc1
clearance, mL/min/kg: 64.8
--
structure.smiles: CN1CCC(NC(=O)c2cc(-c3c(O)cc(O)cc3Oc3ccc(N(C)C)cc3)on2)CC1
clearance, mL/min/kg: 62.3

**Q:** # clearance lookup, item "CN(C)c1ccc(Oc2cc(O)cc(O)c2-c2cc(C(=O)NC3CCN(C4CCC5(CC4)OCCO5)CC3)no2)cc1"
**A:** 29.4
